// reported growth AUC per item
# Tested on: Lactobacillus paracasei
# Procedure details: growth AUC relative to DMSO control (median of replicates) (fraction); higher = more growth (less inhibition), active = hit call of the paper
# Condition summary: 20 µM; 24 h
Measure name: growth AUC

INSERT INTO assay_data (compound, value_observed) VALUES
  ('CON(C(=O)c1cc(C)oc1C)C1CCCCC1', 0.991),
  ('CCCCCCCC/C=C\CCCCCCCCCCCCC', 0.875),
  ('C=CCc1ccc(O)c(OC)c1', 0.957),
  ('C/C=C/C(=O)Oc1c(C(C)CCCCCC)cc([N+](=O)[O-])cc1[N+](=O)[O-] (mixture of isomers)', 0.41),
  ('COC(=O)c1ccccc1S(=O)(=O)NC(=O)n1nc(OCC(C)O)n(C)c1=O (stereo unspecified)', 1.03),
  ('CC(C)OC(=O)N[C@H](C(=O)N[C@H](C)c1nc2ccc(F)cc2s1)C(C)C', 1.03),
  ('CNC(=O)/C(=N/OC)c1ccccc1COc1cc(C)ccc1C', 1.01),
  ('Oc1ccc2nc(-c3cscn3)[nH]c2c1', 0.997),
  ('C#CCN(C)c1c(C#N)cnn1-c1nn2c(c1Cl)CCCC2', 1.05),
  ('CCCCN(C)C(=O)Nc1ccc(Cl)c(Cl)c1', 0.98),
  ('Cc1[nH]oc(=O)c1N=Nc1ccccc1Cl', 0.955);

----------
// reported growth AUC for each item listed
# Tested on: Fusobacterium nucleatum subsp. animalis
# Procedure details: growth AUC relative to DMSO control (median of replicates) (fraction); higher = more growth (less inhibition), active = hit call of the paper
# Condition summary: 20 µM; 24 h
Measure name: growth AUC

INSERT INTO measurements (molecule, measure_name, value_observed) VALUES
  ('CCc1cccc(C)c1NC(C)C(=O)O (racemic)', 'growth AUC', 1.04),
  ('COC(=O)c1cccc(C)c1S(=O)(=O)NC(=O)Nc1nc(OCC(F)(F)F)nc(N(C)C)n1', 'growth AUC', 0.956),
  ('Cl.NCCO/C=C/[C@H](N)C(=O)O', 'growth AUC', 0.981),
  ('CCOC(=O)C(C)N(C(=O)c1ccccc1)c1ccc(Cl)c(Cl)c1 (stereo not drawn)', 'growth AUC', 1.02),
  ('Cc1cc(C2CC2)nc(Nc2ccc(O)cc2)n1', 'growth AUC', 0.955),
  ('O.O.O=[N+]([O-])c1ccc([O-])cc1.[Na+]', 'growth AUC', 0.968),
  ('O=C(O)Cc1cccc2ccccc12', 'growth AUC', 1.01),
  ('ClC=C(c1ccc(Cl)cc1)c1ccc(Cl)cc1', 'growth AUC', 0.98),
  ('CNc1nc(NC(C)C)nc(SC)n1', 'growth AUC', 0.922),
  ('Br[C@@H]1CC[C@H](Br)[C@H](Br)CC[C@@H](Br)[C@@H](Br)CC[C@H]1Br', 'growth AUC', 0.974),
  ('COC(=O)c1ccccc1S(=O)(=O)NC(=O)n1nc(OCC(C)O)n(C)c1=O (stereo not drawn)', 'growth AUC', 1.02),
  ('C/C=C/C(=O)Oc1c(C(C)CCCCCC)cc([N+](=O)[O-])cc1[N+](=O)[O-] (mixture of isomers)', 'growth AUC', 0.94),
  ('CCCCCCCCCC[N+](C)(C)Cc1ccccc1.[Cl-]', 'growth AUC', 1.02),
  ('CCSC(=O)N(CC(C)C)CC(C)C', 'growth AUC', 1.03),
  ('CC(C)c1cc(Oc2ccccc2)cc(C(C)C)c1NC(=S)NC(C)(C)C', 'growth AUC', 0.911),
  ('COC(=O)c1ccc(C(F)(F)F)nc1S(=O)(=O)[N-]C(=O)Nc1nc(OC)cc(OC)n1.[Na+]', 'growth AUC', 0.965),
  ('CCCCCCC(C)OC(=O)C(C)Oc1ccc(Cl)cc1C (stereo not drawn)', 'growth AUC', 0.956),
  ('COC(=O)c1ccc(CNS(C)(=O)=O)cc1S(=O)(=O)NC(=O)Nc1nc(OC)cc(OC)n1', 'growth AUC', 0.977),
  ('Nc1cccc(O)c1', 'growth AUC', 1),
  ('Cc1cc(CC(C)CC(C)(C)C)n(O)c(=O)c1.NCCO (stereo not drawn)', 'growth AUC', 1.02),
  ('CP(=O)(O)CCC(=O)O', 'growth AUC', 0.999),
  ('O=C(O)c1ccc(Cl)cc1Cl', 'growth AUC', 0.891),
  ('CC(=O)Oc1c(Cl)c(Cl)c(Cl)c(Cl)c1Cl', 'growth AUC', 0.782);

Source listed as the supplement of paper PMC12669032.
